- Read-out: Vascular cell adhesion molecule 1 (VCAM1), VCAM1 (gene 7412)
- experiment: BSK_4H_VCAM1: BioMAP Diversity Plus: 4H Assay for Vascular cell adhesion molecule 1 (VCAM1) Biomarker Activity (AID 2283033);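 also: cell-surface VCAM-1 protein measured by ELISA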
- reported.conditions: primary human endothelial cells (HUVEC); actives raise or lower the signal
The source made the active and inactive calls. The calls were made as follows: active = hit-call score of the fitted dose curve at least 0.9, where 1 is the maximum; inactive = score below 0.9.
recorded.endpoint: outcome

[
  {
    "molecular.string": "CCCN(C1CCN(C(=O)C2CCNCC2)CC1)[C@@H]1CCc2ccc(OC)cc2C1",
    "recorded.endpoint": "outcome",
    "reported": "inactive"
  },
  {
    "molecular.string": "O=C(O)c1cc(N=Nc2ccc(S(=O)(=O)Nc3ccccn3)cc2)ccc1O",
    "recorded.endpoint": "outcome",
    "reported": "inactive"
  },
  {
    "molecular.string": "CCNc1ccccc1",
    "recorded.endpoint": "outcome",
    "reported": "inactive"
  }
]

====

- tgt: human Phosphodiesterase 5 (PDE5), PDE5A (gene 8654) (UniProt O76074)
- experiment: NVS_ENZ_hPDE5: NovaScreen (NVS) Enzymatic Assay for human Phosphodiesterase 5 (PDE5) (AID 2283194)
Records with an inconclusive call do not appear. Activity calls are given as the source filed them. The calls were made as follows: active = hit-call score of the fitted dose curve at least 0.9, where 1 is the maximum; inconclusive = response in the unintended direction; inactive = score below 0.9.
Outcomes: active, inactive

[
  {
    "molecule": "CC(=O)c1ccc2c(c1)[C@H](NC(=O)c1ccc(F)cc1)[C@@H](O)C(C)(C)O2",
    "tgt": "human Phosphodiesterase 5 (PDE5), PDE5A (gene 8654) (UniProt O76074)",
    "class.label": "inactive"
  },
  {
    "molecule": "Cc1ccc(N)cc1O",
    "tgt": "human Phosphodiesterase 5 (PDE5), PDE5A (gene 8654) (UniProt O76074)",
    "class.label": "inactive"
  },
  {
    "molecule": "CC(C)=CCCC(C)CCO (configuration not stated)",
    "tgt": "human Phosphodiesterase 5 (PDE5), PDE5A (gene 8654) (UniProt O76074)",
    "class.label": "inactive"
  },
  {
    "molecule": "Nc1nc2ncc(CNc3ccc(C(=O)N[C@@H](CCC(=O)O)C(=O)O)cc3)nc2c(=O)[nH]1",
    "tgt": "human Phosphodiesterase 5 (PDE5), PDE5A (gene 8654) (UniProt O76074)",
    "class.label": "inactive"
  },
  {
    "molecule": "CC[C@H](C)C(=O)O[C@H]1C[C@@H](C)C=C2C=C[C@H](C)[C@H](CC[C@@H]3C[C@@H](O)CC(=O)O3)[C@H]21",
    "tgt": "human Phosphodiesterase 5 (PDE5), PDE5A (gene 8654) (UniProt O76074)",
    "class.label": "inactive"
  },
  {
    "molecule": "COc1ccc(-n2nc(C(F)F)cc2-c2ccc(S(C)=O)cc2)cc1 (configuration not stated)",
    "tgt": "human Phosphodiesterase 5 (PDE5), PDE5A (gene 8654) (UniProt O76074)",
    "class.label": "active"
  },
  {
    "molecule": "CCCCCCc1ccc(O)cc1O",
    "tgt": "human Phosphodiesterase 5 (PDE5), PDE5A (gene 8654) (UniProt O76074)",
    "class.label": "inactive"
  }
]

====

- Tested on: SRY-box transcription factor 2 (SOX2) Protein Expression, Deisenroth Lab, SOX2 (gene 6657)
- experiment: CCTE_Deisenroth_DEVTOX-GLR_legacy_Sox2: (Legacy) CCTE's DevTox GLR-Endo Assay Evaluation of SRY-box transcription factor 2 (SOX2) Protein Expression, Deisenroth Lab (AID 2284346)
Calls of active or inactive are those of the source. Rule for the calls: active = hit-call score of the fitted dose curve at least 0.9, where 1 is the maximum; inactive = score below 0.9.
Classes used: active, inactive

[
  {
    "compound": "Nc1nc2ncc(CNc3ccc(C(=O)N[C@@H](CCC(=O)O)C(=O)O)cc3)nc2c(=O)[nH]1",
    "tgt": "SRY-box transcription factor 2 (SOX2) Protein Expression, Deisenroth Lab, SOX2 (gene 6657)",
    "class.label": "inactive"
  },
  {
    "compound": "NC(=O)NO",
    "tgt": "SRY-box transcription factor 2 (SOX2) Protein Expression, Deisenroth Lab, SOX2 (gene 6657)",
    "class.label": "inactive"
  },
  {
    "compound": "O=C(O)c1cc(N=Nc2ccc(S(=O)(=O)Nc3ccccn3)cc2)ccc1O",
    "tgt": "SRY-box transcription factor 2 (SOX2) Protein Expression, Deisenroth Lab, SOX2 (gene 6657)",
    "class.label": "inactive"
  },
  {
    "compound": "CC[C@H](C)C(=O)O[C@H]1C[C@@H](C)C=C2C=C[C@H](C)[C@H](CC[C@@H]3C[C@@H](O)CC(=O)O3)[C@H]21",
    "tgt": "SRY-box transcription factor 2 (SOX2) Protein Expression, Deisenroth Lab, SOX2 (gene 6657)",
    "class.label": "active"
  },
  {
    "compound": "O=C1CCC(N2C(=O)c3ccccc3C2=O)C(=O)N1 (stereo not given)",
    "tgt": "SRY-box transcription factor 2 (SOX2) Protein Expression, Deisenroth Lab, SOX2 (gene 6657)",
    "class.label": "inactive"
  }
]

====

- experiment: ATG_Sox_CIS: Attagene CIS-FACTORIAL HepG2 Assay for human SRY-box transcription factor (SOX) (AID 2282960)
- reported.conditions: HepG2 Attagene cis-factorial SOX reporter, mRNA; actives raise or lower the signal
- Method: ATG_CIS is a cell-based, multiplexed-readout assay that uses HepG2, a human liver cell line, with measurements taken at 24 hours after chemical dosing in a 24-well plate.ATG_Sox_CIS is one of 52 assay component(s) measured or calculated from the ATG_CIS assay. […] This assay endpoint, ATG_Sox_CIS, was analyzed with bidirectional fitting relative to DMSO as the negative control and baseline of activity. […]
Calls of active or inactive are those of the source. The calls were made as follows: active = hit-call score of the fitted dose curve at least 0.9, where 1 is the maximum; inactive = score below 0.9.
recorded.endpoint: outcome

[
  {
    "compound": "O=C(O)CC(O)C(=O)O (stereo not drawn)",
    "reported": "inactive"
  },
  {
    "compound": "O=C(OC[C@H]1O[C@@H](OC(=O)c2cc(O)c(O)c(OC(=O)c3cc(O)c(O)c(O)c3)c2)[C@H](OC(=O)c2cc(O)c(O)c(OC(=O)c3cc(O)c(O)c(O)c3)c2)[C@@H](OC(=O)c2cc(O)c(O)c(OC(=O)c3cc(O)c(O)c(O)c3)c2)[C@@H]1OC(=O)c1cc(O)c(O)c(OC(=O)c2cc(O)c(O)c(O)c2)c1)c1cc(O)c(O)c(OC(=O)c2cc(O)c(O)c(O)c2)c1",
    "reported": "inactive"
  },
  {
    "compound": "COc1ccc2sc(C(=O)Nc3nnn[nH]3)c(OC(C)C)c2c1",
    "reported": "inactive"
  }
]

====

- Read-out: Monokine induced gamma interferon (MIG), CXCL9 (gene 4283)
- experiment: BSK_hDFCGF_MIG: BioMAP Diversity Plus: hDFCGF Assay for Monokine induced gamma interferon (MIG) Biomarker Activity (AID 2283063)
- reported.conditions: primary human foreskin fibroblasts; actives raise or lower the signal
Active and inactive are the calls of the source. The calls were made as follows: active = hit-call score of the fitted dose curve at least 0.9, where 1 is the maximum; inactive = score below 0.9.
Classes used: 1 (yes) for active, 0 (no) for inactive

[
  {
    "compound": "CCOC(=O)COc1ccc2c(c1)CC(NCC(O)c1cccc(Cl)c1)CC2 (stereo not given)",
    "class.label": "1 (yes)"
  },
  {
    "compound": "CNS(=O)(=O)c1cc(C(=O)N2CCC(CCN3C4CCC3CC(n3c(C)nc5ccccc53)C4)(c3cccc(F)c3)CC2)c(Cl)cc1F (stereo not given)",
    "class.label": "0 (no)"
  },
  {
    "compound": "O=C1CCC(N2C(=O)c3ccccc3C2=O)C(=O)N1 (stereo not given)",
    "class.label": "0 (no)"
  },
  {
    "compound": "CC[C@H]1OC(=O)[C@H](C)[C@@H](O[C@H]2C[C@@](C)(OC)[C@@H](O)[C@H](C)O2)[C@H](C)[C@@H](O[C@@H]2O[C@H](C)C[C@H](N(C)C)[C@H]2O)[C@](C)(O)C[C@@H](C)C(=O)[C@H](C)[C@@H](O)[C@]1(C)O",
    "class.label": "0 (no)"
  },
  {
    "compound": "O=C(CCCCCCCCc1cccnc1)N1CCC(C=C(c2ccccc2)c2ccccc2)CC1",
    "class.label": "1 (yes)"
  }
]

====

- Read-out: Cytochrome P450 2C19 (Homo sapiens)
- experiment: LTEA_HepaRG_CYP2C19: Life Technologies and Expression Analysis (LTEA) Assay for CYP2C19 using HepaRG (AID 2283482)
- reported.conditions: mRNA level, 48 h; actives raise or lower the signal
Calls of active or inactive are those of the source. How the source made its calls: active means hit-call score of the fitted dose curve at least 0.9, where 1 is the maximum; inactive means score below 0.9.
Outcome codes: T for active, F for inactive

[
  {
    "molecule": "C=CC(=C)CCC=C(C)C",
    "class.label": "F"
  },
  {
    "molecule": "CCNc1ccccc1",
    "class.label": "F"
  },
  {
    "molecule": "COC(=O)CC(=O)OC",
    "class.label": "T"
  },
  {
    "molecule": "CN(C)c1ccc(N=NS(=O)(=O)O)cc1",
    "class.label": "F"
  },
  {
    "molecule": "CC(C)CC(C)(O)C#CC(C)(O)CC(C)C (stereo not drawn)",
    "class.label": "T"
  },
  {
    "molecule": "Cc1ccc(N)cc1O",
    "class.label": "F"
  },
  {
    "molecule": "CCCCCCCCCCCCc1ccccc1",
    "class.label": "F"
  },
  {
    "molecule": "Cc1c(-c2cccnc2)c2ccccc2n1CCCCC(=O)O",
    "class.label": "F"
  }
]
